Structures can show the parent of a compound that is named as a salt.
As shown below, each of these compounds has a reported melting point value.

Please review the entries below; each comes with its answer.
Prompt: Quick one: melting point of C[C@H](N)C(=O)c1nc2ccc(F)cc2s1 [Compound 34b] ?
Response: > 152 °C (dec.)

Prompt: Which melting point reading was recorded for the compound COc1cccc(-n2cc(C(=O)[C@H](C)N)nn2)c1 [Compound 26b] ?
Response: > 171 °C (dec.)

Prompt: Looking for the measured melting point of CC[C@H](N)C(=O)c1cn(-c2ccc(F)cc2)nn1.Cl [Compound 32c] , can you help?
Response: > 182 °C (dec.)

Prompt: Could you tell me which melting point is on file for C[C@H](N)C(=O)c1cn(-c2cccnc2)nn1 (as salt: hydrochloride) [Compound 26l] ?
Response: 140 to 143 °C (dec.)

Prompt: Name the reported melting point value associated with the compound C[C@H](N)C(=O)c1ncc(-c2ccc(F)cc2Cl)s1.Cl [Compound 49c]
Response: 127 to 134 °C (dec.)

Others:
Prompt: Requested read-out: melting point. Entry: C[C@H](N)C(=O)c1cn(-c2ccc(F)cc2)nn1.Cl [Compound 26n]
Response: > 183 °C (dec.)

Prompt: Please report the recorded melting point for CC[C@H](N)C(=O)c1ncc(-c2ccccc2)s1 [Compound 25e] .
Response: > 180 °C (dec.)

Prompt: What value of melting point has been recorded for this entry: C[C@H](N)C(=O)c1cn(-c2ccc(C(C)(C)C)cc2)nn1 [Compound 26d]
Response: > 181 °C (dec.)

Prompt: Param item = Cc1cccc(C)c1-n1cc(C(=O)[C@H](C)N)nn1 [Compound 26h] ; retrieve measured melting point.
Response: > 176 °C (dec.)

Prompt: Need melting point of `C[C@H](N)C(=O)c1ncc(-c2ccccc2)s1` , thanks.
Response: > 168 °C (dec.)

* * *

measured-quantity: melting point

Reference set (2 entries):
Prompt: State the recorded melting point for this entry: COc1ccccc1-n1cc(C(=O)[C@H](C)N)nn1 [Compound 26c]
Response: > 168 °C (dec.)

Prompt: Record request: melting point value, item CCCC[C@H](N)C(=O)c1cn(-c2ccccc2)nn1.Cl [Compound 21d]
Response: > 173 °C (dec.)

We now examine a further compound.
Prompt: Which melting point is reported for this compound? C[C@H](N)C(=O)c1cn(-c2ccc([N+](=O)[O-])cc2)nn1.Cl [Compound 26q]
Response: > 191 °C (dec.)

* * *

molecular target: hKAT-II (Homo sapiens); construct: hexahistidine tag (N); made in house; host or cells: E. coli BL21(DE3)-RIL; test: Coupled fluorescence in vitro inhibition assay of hKAT-II; format: biochemical; settings: c = 1 µM; 30 min pre-incubation with enzyme; 20 nM hKAT-II; mean ± SEM
Sequence (Q8N5Z0 30-425): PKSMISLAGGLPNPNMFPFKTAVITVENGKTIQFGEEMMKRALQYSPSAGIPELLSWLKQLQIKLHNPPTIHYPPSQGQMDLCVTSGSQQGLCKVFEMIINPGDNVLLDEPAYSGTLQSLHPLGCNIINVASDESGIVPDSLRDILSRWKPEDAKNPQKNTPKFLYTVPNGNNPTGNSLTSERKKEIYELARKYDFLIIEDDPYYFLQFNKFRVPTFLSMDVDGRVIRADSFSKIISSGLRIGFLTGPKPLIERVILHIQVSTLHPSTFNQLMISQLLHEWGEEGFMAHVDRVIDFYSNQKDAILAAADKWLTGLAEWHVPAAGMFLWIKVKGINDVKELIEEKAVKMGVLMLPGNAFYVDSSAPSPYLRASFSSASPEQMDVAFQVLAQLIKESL
measured-quantity: Inhibitory Activity [%I ± SEM] c = 1 µM (%I)
Field: numeric (%I). Do not append units.

A selection of reference data follows.
Prompt: // Inhibitory Activity [%I ± SEM] c = 1 µM lookup, key: N[C@@H](CCc1ccccc1)C(=O)c1ncc(-c2ccccc2)s1 [Compound 25c]
Response: 31.32

Prompt: Look up Inhibitory Activity [%I ± SEM] c = 1 µM: CC[C@H](N)C(=O)c1cn(-c2ccc(F)cc2Cl)nn1 [Compound 32b]
Response: 21.25

Prompt: Fill in the blank: the reported Inhibitory Activity [%I ± SEM] c = 1 µM of CC[C@H](N)C(=O)c1cn(-c2ccc(F)cc2)nn1.Cl [Compound 32c] is ____.
Response: 35.94

Next:
Prompt: Tell me the measured Inhibitory Activity [%I ± SEM] c = 1 µM of CC(C)[C@H](N)C(=O)c1ncc(-c2ccccc2)s1 [Compound 25a] , please.
Response: 31.24

Prompt: So what's the measured Inhibitory Activity [%I ± SEM] c = 1 µM for this one? CCCC[C@H](N)C(=O)c1cn(-c2ccccc2)nn1.Cl [Compound 21d]
Response: 13.46

* * *

target: hKAT-II (Homo sapiens); construct: hexahistidine tag (N); made in house; host or cells: E. coli BL21(DE3)-RIL; test: Coupled fluorescence in vitro inhibition assay of hKAT-II; format: biochemical; settings: c = 1 µM; 30 min pre-incubation with enzyme; 20 nM hKAT-II; mean ± SEM
The recorded Inhibitory Activity [%I ± SEM] c = 1 µM of each item maps onto one of these classes: range 1: < 20 %I; range 2: ≥ 20 %I and < 40 %I; range 3: ≥ 40 %I

Prompt: Tag the class for C[C@H](N)C(=O)c1nc2ccccc2s1.Cl [Compound 34a]
Response: range 3

Prompt: Which class holds N[C@H](C(=O)c1ncc(-c2ccccc2)s1)C1CC1 [Compound 25f] ?
Response: range 1

Prompt: Bin? CC[C@H](N)C(=O)c1cn(-c2ccccc2)nn1.Cl [Compound 21e]
Response: range 2

Prompt: Hey, which category is `C[C@H](N)C(=O)c1ncc(-c2ccccc2)s1` in, do you know?
Response: range 3

Prompt: Please report the category associated with C[C@H](N)C(=O)c1cn(-c2ccccn2)nn1.Cl [Compound 26k] , nothing else.
Response: range 2

New cases:
Prompt: Field: class (Inhibitory Activity [%I ± SEM] c = 1 µM) — entry: N[C@H](C(=O)c1cn(-c2ccccc2)nn1)C1CC1 [Compound 21f]
Response: range 1

Prompt: Which Inhibitory Activity [%I ± SEM] c = 1 µM category applies to `C[C@H](N)C(=O)c1cn(-c2ccccc2)nn1` here?
Response: range 3

Prompt: Tag the class for C[C@H](N)C(=O)c1cn(-c2ccc(Cl)c(Cl)c2)nn1 [Compound 26u]
Response: range 1

Prompt: Bin? C[C@H](N)C(=O)c1nc2ccc(F)cc2s1 [Compound 34b]
Response: range 3

Prompt: Sort C[C@H](N)C(=O)c1cn(-c2cccc3ccccc23)nn1 [Compound 26i] into one of the categories.
Response: range 1

Prompt: Field: class (Inhibitory Activity [%I ± SEM] c = 1 µM) — entry: Cc1cccc(C)c1-n1cc(C(=O)[C@H](C)N)nn1 [Compound 26h]
Response: range 2

Prompt: Bin this entry: Cl.N[C@@H](CCc1ccccc1)C(=O)c1cn(-c2ccccc2)nn1 [Compound 21c]
Response: range 1

Prompt: In plain terms, what class is C[C@H](N)C(=O)c1cn(-c2ccc3ccccc3c2)nn1 [Compound 26j] ?
Response: range 2

Prompt: Form field 'band' for C[C@H](N)C(=O)c1cn(-c2cccc(Cl)c2)nn1 [Compound 26s]
Response: range 2

Prompt: Hello team, could you let me know which band the following molecule falls into: CC[C@H](N)C(=O)c1ncc(-c2ccc(F)cc2)s1 [Compound 49b]
Response: range 3

Prompt: Returns: class label. Input: CC[C@H](N)C(=O)c1nc2ccccc2s1.Cl [Compound 34c]
Response: range 2

Prompt: Which band does C[C@H](N)C(=O)c1cn(-c2ccc(F)cc2Cl)nn1 [Compound 32a] fall in?
Response: range 2

Prompt: Category of Cc1ccc(-n2cc(C(=O)[C@H](C)N)nn2)c(C)c1 [Compound 26g] :
Response: range 3

* * *

measured-quantity: melting point

Prompt: Recorded melting point of C[C@H](N)C(=O)c1cn(-c2ccc(Cl)c(Cl)c2)nn1 [Compound 26u] , please.
Response: > 163 °C (dec.)

Prompt: Could you share which melting point value was measured for C[C@H](N)C(=O)c1cn(-c2ccccn2)nn1.Cl [Compound 26k] ?
Response: > 198 °C (dec.)

Prompt: Using the record for C[C@H](N)C(=O)c1cn(-c2ccncc2)nn1.Cl.Cl [Compound 26m] , report its melting point.
Response: > 183 °C (dec.)

Prompt: Fill in: melting point of C[C@H](N)C(=O)c1cn(CCc2ccccc2)nn1.Cl [Compound 28b] is ___
Response: > 172 °C (dec.)

More entries:
Prompt: Name the recorded melting point for `C[C@H](N)C(=O)c1cn(-c2ccccc2)nn1` .
Response: > 178 °C (dec.)

Prompt: Any idea what melting point was measured for C[C@H](N)C(=O)c1cn(-c2ccc(Cl)cc2)nn1.Cl [Compound 26r] ?
Response: > 177 °C (dec.)

Prompt: # query: melting point of entry N[C@@H](CCc1ccccc1)C(=O)c1ncc(-c2ccccc2)s1 [Compound 25c]
Response: > 135 °C (dec.)

Prompt: Report melting point for CC[C@H](N)C(=O)c1ncc(-c2ccc(F)cc2)s1 [Compound 49b] please.
Response: > 150 °C (dec.)

Prompt: Requested read-out: melting point. Entry: CC[C@H](N)C(=O)c1ncc(-c2ccc(F)cc2Cl)s1.Cl [Compound 49d]
Response: > 134 °C (dec.)

Source listed as paper PMC8708382.
